Target: NLRP3 inflammasome (Homo sapiens)
Sequence (Q96P20 whole entry): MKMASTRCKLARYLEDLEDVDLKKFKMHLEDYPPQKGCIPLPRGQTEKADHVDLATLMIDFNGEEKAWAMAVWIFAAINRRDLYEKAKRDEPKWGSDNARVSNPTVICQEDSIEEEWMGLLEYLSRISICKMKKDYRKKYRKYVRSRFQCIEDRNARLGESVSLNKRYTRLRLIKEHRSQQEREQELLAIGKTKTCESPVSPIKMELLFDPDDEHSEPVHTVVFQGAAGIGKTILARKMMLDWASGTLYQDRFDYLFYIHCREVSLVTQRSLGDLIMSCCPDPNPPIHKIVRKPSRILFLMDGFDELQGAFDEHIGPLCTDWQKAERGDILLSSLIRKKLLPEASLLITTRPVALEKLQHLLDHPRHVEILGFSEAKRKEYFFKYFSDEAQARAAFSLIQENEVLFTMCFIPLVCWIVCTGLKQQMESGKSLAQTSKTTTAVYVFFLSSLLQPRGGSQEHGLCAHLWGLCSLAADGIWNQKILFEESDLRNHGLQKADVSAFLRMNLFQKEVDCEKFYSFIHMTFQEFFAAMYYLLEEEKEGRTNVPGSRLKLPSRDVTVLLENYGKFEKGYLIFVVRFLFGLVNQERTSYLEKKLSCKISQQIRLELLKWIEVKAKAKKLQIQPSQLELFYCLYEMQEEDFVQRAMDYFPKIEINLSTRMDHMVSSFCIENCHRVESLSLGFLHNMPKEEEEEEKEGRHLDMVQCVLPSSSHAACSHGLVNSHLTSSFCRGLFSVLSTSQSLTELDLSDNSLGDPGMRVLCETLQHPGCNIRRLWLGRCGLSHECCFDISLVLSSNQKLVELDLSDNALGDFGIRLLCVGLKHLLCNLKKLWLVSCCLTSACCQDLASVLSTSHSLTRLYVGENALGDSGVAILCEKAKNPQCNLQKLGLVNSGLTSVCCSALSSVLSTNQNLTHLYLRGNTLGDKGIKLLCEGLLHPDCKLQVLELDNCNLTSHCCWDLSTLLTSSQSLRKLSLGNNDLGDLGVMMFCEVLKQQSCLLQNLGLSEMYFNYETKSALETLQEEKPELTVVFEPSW
Assay: IL-1β assay in IFN-γ-differentiated, LPS-primed, ATP-activated THP-1 cells (ELISA)
Details: 50 ng/mL LPS priming, 2.5 mM ATP activation, 2 hours
Method: Monocytic THP-1 cells (ATCC: TIB-202) are maintained in accordance with the provider's instructions in RPMI media (Life Technologies, Cat #A10491-01); RPMI is supplemented with 10% heat inactivated fetal bovine serum (Hyclone Cat #SH30396.03). […] At the end of the incubation period, 40 μL supernatant is removed, and […] are monitored using an ELISA (Human […], R&D systems, Cat #DY201) in accordance with the manufacturer's instructions. […]

compound: C[C@]1(O)C[C@H](Nc2nnc(-c3ccc(Cl)cc3)c3ccccc23)C1 [Example 119]
tested_on: NLRP3 inflammasome (Homo sapiens)
unit_spec: nM
IC50: 2750
//
compound: O[C@]1(C(F)(F)F)C[C@@H](Nc2nnc(-c3ccc(Cl)cc3)c3ccccc23)C1 [Example 117]
tested_on: NLRP3 inflammasome (Homo sapiens)
unit_spec: nM
IC50: 624
//
compound: COc1ccc(-c2nnc(N[C@@H]3C[C@@H](F)CN(C)C3)c3ccccc23)c(F)c1 [Example 178]
tested_on: NLRP3 inflammasome (Homo sapiens)
unit_spec: nM
IC50: 81
//
compound: COc1ccc(-c2nnc(N[C@@H]3C[C@@H](F)CN(C)C3)c3c2COCC3)c(C(F)(F)F)c1 [Example 210]
tested_on: NLRP3 inflammasome (Homo sapiens)
unit_spec: nM
IC50: 757
//
compound: Cc1ccc(-c2nnc(N[C@@H]3C[C@@H](F)CN(C)C3)c3c(C)nccc23)c(O)c1 [Example 186]
tested_on: NLRP3 inflammasome (Homo sapiens)
unit_spec: nM
IC50: 5
//
compound: CN1CCCC(Nc2nnc(-c3ccc(Cl)cc3)c3c2CN(C2CC2)CC3)C1 (centres unmarked) [Example 103]
tested_on: NLRP3 inflammasome (Homo sapiens)
unit_spec: nM
IC50: 3630
//
compound: CN1CCCC(Nc2nnc(-c3ccc(C(F)F)cc3)c3ccccc23)C1 (centres unmarked) [Example 21]
tested_on: NLRP3 inflammasome (Homo sapiens)
unit_spec: nM
IC50: 75
//
compound: CN1CC2CC2(Nc2nnc(-c3ccc(Cl)cc3)c3ccccc23)C1 (centres unmarked) [Example 152]
tested_on: NLRP3 inflammasome (Homo sapiens)
unit_spec: nM
IC50: 490

From: patent US20250340563A1
